assay: SK-BR-3 cell growth inhibitors, pilot screen, 24 h, human (AID 572); settings: SK-BR-3 viability, CellTiter-Glo luminescence, at 10 µM, stronger effect = lower value;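 also: compound exposure lasted between 18 and 24 h rather than exactly 24 h; 100% = carrier-treated control wells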
PROPERTY MEASURED: viability (%)
Respond with the bare value in %.

COC(=O)c1cc(S(=O)(=O)N2CCOCC2)c(N2CCOCC2)cc1N1CCOCC1
124
COc1ccc(C(c2nnnn2C2CCCC2)N2CCC(C)CC2)c(OC)c1 (configuration not stated)
154
COc1ccccc1N1CCN(C(=O)CN(Cc2ccc(Cl)cc2)S(C)(=O)=O)CC1
91
Clc1cccc(-c2nn3c(Cn4cnc5ccccc54)nnc3s2)c1
94.5
CCOC(=O)CSC1=C(C#N)C(c2ccc(Cl)cc2)C(C(=O)OC)C(=O)N1 (configuration not stated)
104

Read off the recorded viability for Cc1nc(NC(=O)c2csc3ccccc23)sc1C
100

Read off the recorded viability for CC(C)C[C@H](NC(=O)Nc1cccc(C(F)(F)F)c1)C(=O)O
115

====

assay: growth suppression of yeast trafficking mutant, preliminary HTS, modulators of trafficking downstream of Golgi apparatus project, 1536-format plate, OD 615 nm (AID 637); details: yeast transport mutant growth, absorbance 615 nm, 18 h; stronger effect = higher value
Calls of active or inactive are those of the source. Cut-off read from the data, not from the text of the source: active = inhibition above about 30%; inactive = the rest.
PROPERTY MEASURED: inhibition

COc1ccc(CN(CC(=O)NCC2CCCO2)C(=O)CCC(=O)Nc2cc(C)on2)cc1 (stereo not drawn)
9.27% (inactive)
CCSc1nc(O)c(C2OC(=O)c3c2ccc(OC)c3OC)c(=O)n1-c1ccccc1 (stereo not drawn)
4.35% (inactive)

Now look at this one.
Read off the recorded inhibition for COc1ccc(-c2c(=O)n(OCc3ccccn3)c3ccccc3[n+]2[O-])cc1OC
-3.65% (inactive)

====

assay: reversal of MRP1-mediated doxorubicin resistance, pilot screen, H69AR cells, doxorubicin co-treatment (AID 601); details: H69AR cells + 2 uM doxorubicin, CellTiter-Glo, 72 h; at 10 µM; stronger effect = higher value
PROPERTY MEASURED: differential viability (reversal) (%)
Respond with the bare value in %.

Cc1ccc(O)c(-c2cc(C(=O)Nc3ccc(S(=O)(=O)N4CC(C)OC(C)C4)cc3)[nH]n2)c1 (centres undefined)
-8.67
O=c1[nH]c(=O)n([C@H]2C[C@H](O)[C@@H](CO)O2)cc1F
-40.6
CN(C)c1cccc(N=C2C=C(N3CCOCC3)CC(C)(C)C2)c1
-1.85
CN(CCc1ccccn1)c1ncnc2[nH]ncc12
9.97

Read off the recorded differential viability (reversal) for O=C(Nc1cccc2ccccc12)N1CCN(c2ccccc2)CC1
-7

====

Below: a set of entries, each annotated with reported inhibition.
assay: growth suppression of yeast trafficking mutant, preliminary HTS, modulators of trafficking downstream of Golgi apparatus project, 1536-format plate, OD 615 nm (AID 637); conditions: yeast transport mutant growth, absorbance 615 nm, 18 h; stronger effect = higher value
Respond with the bare value in %.

Some compounds with recorded inhibition:
O=C(NCC1COc2ccccc2O1)c1ccc(NC(=O)c2ccco2)cc1 (centres undefined)
-2.33
CCOc1ccc2c(c1)c1nnc(SCC(=O)N3CCC(C)CC3)nc1n2C
-1.45
CC(CCc1ccccc1)NC(=O)c1ccc(Br)o1 (centres undefined)
0.63
CCOc1ccc(-c2cn(S(=O)(=O)c3cccc4nsnc34)nc2N)cc1
31
Cc1ccc(Cn2c(=N)c(C(=O)NCc3ccco3)cc3c(=O)n4ccccc4nc32)cc1
-4.36

Read off the recorded inhibition for Cc1cc(C(=O)Nc2cccc(O)c2)c(C)o1
3.17

Read off the recorded inhibition for O=C(CSc1nnc(-c2cnccn2)n1Cc1ccco1)c1ccc(Cl)cc1
6.5

Read off the recorded inhibition for O=C(COc1ccc(S(=O)(=O)NC2CCCCC2)cc1)NCc1ccccn1
2.18

Read off the recorded inhibition for O=C(NC1CC1)C1CCC(=O)N1C1CCCC1 (centres undefined)
0.33

Read off the recorded inhibition for c1cc2c(cc1C1CCCN1)OCCCO2 (centres undefined)
2

====

assay: reversal of MRP1-mediated doxorubicin resistance, pilot screen, H69AR cells, doxorubicin co-treatment (AID 601); details: H69AR cells, CellTiter-Glo, 72 h; compound alone cytotoxicity; at 10 µM
PROPERTY MEASURED: viability (%)
Respond with the bare value in %.

Some molecules with recorded viability:
Cc1cc(C(=O)CSc2nnc(-c3ccccc3)n2C)c(C)n1C
95.5
O=C(O)c1cc(O)c2c(c1)C(=O)c1cccc(O)c1C2=O
76.9
O=C(CSc1ccc(-c2ccccc2)nn1)N1CCOCC1
95.2
O=C(Nc1ccon1)c1cc(-c2ccccc2)nc2ccccc12
96.2

Now look at this one.
Read off the recorded viability for CC(C)(C)NC(=O)C(Cc1ccccc1)NS(=O)(=O)c1cccc2nsnc12 (stereo not given)
87.8

====

experiment: growth suppression of yeast trafficking mutant, preliminary HTS, modulators of trafficking downstream of Golgi apparatus project, 1536-format plate, OD 615 nm (AID 637); conditions: yeast transport mutant growth, absorbance 615 nm, 18 h; stronger effect = higher value
Below: a set of entries, each annotated with reported inhibition.
Respond with the bare value in %.

CCc1nnc(NC(=O)CSc2nnc(-c3cc4ccccc4cc3O)n2CC)s1
-3.28
Cc1nc2cc(CO)ccc2n1C
-1.9
O=C(Nc1cc(C(=O)N2CCCC2)ccc1N1CCCC1)c1ccccc1F
-3.64
Cc1ccc(S(=O)(=O)N2CCN(C(=O)CSc3nnnn3C)C2)cc1
0.17
CC(=O)Nc1ccc(N2CCN(Cc3ccccc3F)CC2)cc1
1.11

Now look at this one.
Read off the recorded inhibition for CC(=O)CCc1ccc(OCCCCn2cncn2)cc1
1.59

====

assay: HUVEC growth inhibition – cell-based, human, primary screen (AID 575); details: HUVEC proliferation, CellTiter-Glo luminescence, 72 h; at 10 µM;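 also: 100% = median of untreated cell wells with 0.1% DMSO on each plate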
Calls of active or inactive are those of the source.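 The calls were made as follows: active = viability at or below 30% in both replicate assays; inconclusive = viability at or below 30% in just one of the two assays; inactive = the rest.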
Answer with one of the outcomes given here: true (1) = active, false (0) = inactive

Cc1cccc(NC(=O)CCCCCN2C(=O)c3ccccc3C2=O)n1
false (0)
CS(=O)(=O)N1CCC(C(=O)NCCC2=CCCCC2)CC1
false (0)
O=C(CCCn1c(=S)[nH]c2cc3c(cc2c1=O)OCO3)N1CCN(c2ccccc2F)CC1
false (0)
CSc1nc2ccc(Nc3nc(N4CCOCC4)nc(N4CCOCC4)n3)cc2s1
true (1)
N[C@@H](Cc1ccc(O)c(I)c1)C(=O)O
false (0)

Can you look up the reported call for COC(=O)CNC(=O)COC(=O)c1cc(Cl)cc(Cl)c1N for me?
false (0)

Can you look up the reported call for Cc1cccc(OCC(=O)N2CCC(c3ccccc3)C2)c1 (configuration not stated) for me?
false (0)

Can you look up the reported call for N#CCC(=O)Nc1ncn(Cc2ccccc2Cl)n1 for me?
false (0)

Can you look up the reported call for Cc1nc(SCC(=O)NCc2ccco2)c2c(C)c(C)sc2n1 for me?
false (0)

Can you look up the reported call for Cc1nnc(SCC(=O)Nc2nccs2)s1 for me?
false (0)

Can you look up the reported call for CCCN1C(=O)c2cc(C(=O)O)ccc2C1O (configuration not stated) for me?
false (0)

====

target: Receptor tyrosine-protein kinase erbB-2 (Homo sapiens); test: reducers of endogenous Her2 protein level, primary screen, SKBR3 breast tumor cells, AlphaScreen, ATP viability (AID 461); details: 18-24 h, at 10 µM;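 also: lower value means less Her2 protein in the cells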
Activity calls are given as the source filed them.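 How the source made its calls: active means Her2 level under about 52% in both replicate screens, with viability over 70% of control (limit read from the data); inconclusive means Her2 under the limit in one screen only, or viability under 70%; inactive means Her2 level above the set limit.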
Answer with one of the outcomes given here: active, inactive

Worked examples, 5 molecules total:
CCOC(=O)c1cc(-c2nnc(-c3ccc(Oc4ccccc4)cc3)o2)c(C)nc1C
inactive
CCOC(=O)CSC1=C(C#N)C(c2ccc(Cl)cc2)C(C(=O)OC)C(=O)N1 (stereo not given)
inactive
CCOc1cc(NC(=O)c2ccco2)c(OCC)cc1NC(=O)CCc1ccc(OC)cc1
inactive
CCOC(=O)Cn1c(CN2CCOCC2)nc2c1c(=O)[nH]c(=O)n2C
inactive
CCOc1ccccc1Nc1nnc(SCC(=O)N2CCCC2)s1
inactive

Can you look up the reported call for COc1ccc(S(=O)(=O)Cc2ccc(C(=O)N3CCN(Cc4ccccc4)CC3)o2)cc1 for me?
inactive

Can you look up the reported call for Clc1ccc(Cl)c(-c2nn3c(COc4ccccc4)nnc3s2)c1 for me?
inactive

Can you look up the reported call for Cc1ccc(S(=O)(=O)CC2CSc3nnc(C)c(=O)n32)cc1 (stereo not given) for me?
inactive

====

Below: a set of entries, each annotated with reported differential viability (reversal).
assay: reversal of MRP1-mediated doxorubicin resistance, pilot screen, H69AR cells, doxorubicin co-treatment (AID 601); conditions: H69AR cells + 2 uM doxorubicin, CellTiter-Glo, 72 h; at 10 µM; stronger effect = higher value
Respond with the bare value in %.

O=C(CSc1nnc2c3cc(F)ccc3nc(-c3ccccc3)n12)N1CCOCC1
0.06
O=C(Nc1sc2c(c1C(=O)NCc1ccco1)CCCC2)c1ccc2c(c1)OCO2
-11.3
CC(C(N)=O)N1C(=O)C2C3C=CC(C3)C2C1=O (centres undefined)
10.4
CC1=C(C(N)=O)C(c2ccc(Cl)cc2Cl)n2ncnc2N1 (centres undefined)
16.7
COC(=O)c1cc2ccsc2n1CC(=O)N(C)c1ccccc1
0.29

Now look at this one.
Read off the recorded differential viability (reversal) for Nc1cc(C(=O)O)ccc1Nc1ccccc1
11.5

Origin of measurements: PubChem BioAssay
